From: ChEMBL document CHEMBL1147662

# Test Name: Bioavailability in Wistar Han rat at 1 mg/kg, po and 1 mg/kg, iv
# Type: ADME, organism-based
# Measurement Context: in vivo
Test Readout: bioavailability (%)
One number for each entry, in %.

// query Reported bioavailability for O=C(O)c1cccc(-c2cccc(NCCNC[C@H](O)c3cccc(Cl)c3)c2)c1 [SOLABEGRON] : what is it?
// result 30

###

# Test Name: Bioavailability in Beagle dog
# Format: ADME, organism-based, Canis lupus familiaris
# Measurement Context: in vivo
Kind request: treat 30% as inclusive, so bioavailability at 30% or higher is rule met, anything lower is rule not met.

These solved cases illustrate the format of a correct answer.
O=C(O)c1cccc(-c2cccc(NCCNC[C@H](O)c3cccc(Cl)c3)c2)c1 = rule met
Cc1ccc(C(=O)O)cc1-c1cccc(NCCNC[C@H](O)c2cccc(Cl)c2)c1 = rule met
C[C@H](CNc1cccc(-c2ccccc2C(=O)O)c1)NC[C@H](O)c1cccc(Cl)c1 = rule met
O=C(O)c1ccncc1-c1cccc(NCCNC[C@H](O)c2cccc(Cl)c2)c1 = rule not met

Note: attention shifts to another entry.
// query Is reported bioavailability greater than or equal to 30% here: `C[C@H](CNc1cccc(-c2cccc(C(=O)O)c2)c1)NC[C@H](O)c1cccc(Cl)c1`
// result rule not met
